Test: Selectivity index, ratio of CC50 for Macaca mulatta hepatocytes to IC50 for antiplasmodial activity against schizont Plasmodium cynomolgi B strain infected in Macaca mulatta hepatocytes incubated with sporozoite containing salivary gland homogenate obtained from dissected Anopheles dirus mosquitoes (infected with Plasmodium cynomolgi B strain) treatment started on day 4 post infection and continued daily for 4 days into fresh changed media until day 8 assessed as Liver stage (LS) activity by measuring prophylactic mode by immunofluorescent staining analysis
Type: toxicity, cell-based
Details: rhesus monkey, read-out: Selectivity Index
Each entry below carries its recorded selectivity ratio at 96 h.
outcomeMeasure: selectivity ratio at 96 h

- compound: "O=c1c2c([nH]c3cc(Oc4ccccc4OC(F)(F)F)ccc13)CCCC2"
  outcomeMeasure: "selectivity ratio at 96 h"
  comparator: ">"
  assayValue: 31.2
- compound: "O=c1c2ccc(OC3CCNCC3)cc2[nH]c2cc(F)cc(Cl)c12"
  outcomeMeasure: "selectivity ratio at 96 h"
  comparator: ">"
  assayValue: 4.92
- compound: "O=c1c2c([nH]c3ccc(F)c(Oc4ccc(OC(F)(F)F)cc4)c13)CCCC2"
  outcomeMeasure: "selectivity ratio at 96 h"
  comparator: ">"
  assayValue: 2.7
- compound: "O=c1c2ccc(Oc3cccc(C(F)(F)F)c3)cc2[nH]c2cc(F)c(Cl)cc12"
  outcomeMeasure: "selectivity ratio at 96 h"
  comparator: ">"
  assayValue: 55.6
- compound: "O=c1c2ccc(OCc3cccc(OC(F)(F)F)c3)cc2[nH]c2cc(F)cc(Cl)c12"
  outcomeMeasure: "selectivity ratio at 96 h"
  comparator: "="
  assayValue: 39.5
- compound: "COc1cc(C)c2c(Oc3cccc(C(F)(F)F)c3)c(OC)cc(NC(C)CCCN)c2n1 (configuration not stated) [TAFENOQUINE]"
  outcomeMeasure: "selectivity ratio at 96 h"
  comparator: "="
  assayValue: 380
- compound: "O=c1c2ccc(OCc3ccc(OC(F)(F)F)cc3)cc2[nH]c2cc(Cl)cc(F)c12"
  outcomeMeasure: "selectivity ratio at 96 h"
  comparator: "="
  assayValue: 10.4
- compound: "CCCCCCOc1ccc2c(=O)c3c([nH]c2c1)CCCC3"
  outcomeMeasure: "selectivity ratio at 96 h"
  comparator: ">"
  assayValue: 7.09
- compound: "O=c1c2ccc(Oc3ccc(OC(F)(F)F)cc3)cc2[nH]c2cc(F)c(Cl)cc12"
  outcomeMeasure: "selectivity ratio at 96 h"
  comparator: ">"
  assayValue: 33.3
- compound: "O=c1c2ccc(OCc3ccc(C(F)(F)F)cc3)cc2[nH]c2cc(Cl)cc(F)c12"
  outcomeMeasure: "selectivity ratio at 96 h"
  comparator: "="
  assayValue: 15.2
- compound: "O=c1c2cc(Oc3ccc(OC(F)(F)F)cc3)ccc2[nH]c2cc(Cl)cc(F)c12"
  outcomeMeasure: "selectivity ratio at 96 h"
  comparator: ">"
  assayValue: 667
- compound: "O=c1c2c([nH]c3ccc(Oc4ccc(OC(F)(F)F)cc4)cc13)CCCC2"
  outcomeMeasure: "selectivity ratio at 96 h"
  comparator: ">"
  assayValue: 40
- compound: "O=c1c2c([nH]c3cc(OC(F)(F)F)ccc13)CCCC2"
  outcomeMeasure: "selectivity ratio at 96 h"
  comparator: ">"
  assayValue: 5.05
- compound: "O=c1c2ccc(Oc3ccc(OC(F)(F)F)cc3)cc2[nH]c2ccc(Cl)c(F)c12"
  outcomeMeasure: "selectivity ratio at 96 h"
  comparator: "="
  assayValue: 91.6
- compound: "COc1ccc(Oc2ccc3c(=O)c4c(F)cc(Cl)cc4[nH]c3c2)cc1"
  outcomeMeasure: "selectivity ratio at 96 h"
  comparator: "="
  assayValue: 22
- compound: "CCN(CC)CCCOc1ccc2c(=O)c3c([nH]c2c1)CCCC3"
  outcomeMeasure: "selectivity ratio at 96 h"
  comparator: ">"
  assayValue: 1.82
- compound: "O=c1c2ccc(Oc3ccc(OC(F)(F)F)cc3)cc2[nH]c2ccc(F)c(Cl)c12"
  outcomeMeasure: "selectivity ratio at 96 h"
  comparator: "="
  assayValue: 111
